meta.source: ChEMBL document CHEMBL3997846

Entries and their selectivity ratio
- EXPERIMENT NOTES: Selectivity index, ratio of IC50 for rat L6 cells to IC50 for Leishmania donovani MHOM/SD/62/ISCL2D axenic amastigotes
- Type: toxicity
- CONDITION DESCRIPTION: read-out: Ratio IC50
Lab note: record just the number, no unit beside it.

[N-]=[N+]=NC[C@H]1O[C@@H](n2cnc3c(N)nc(Cl)nc32)[C@H](O)[C@@H]1O    0.8
CNc1nc(I)nc2c1ncn2[C@@H]1O[C@H](C)[C@@H](O)[C@H]1O    0.7
CC(=O)NC[C@H]1O[C@@H](n2cnc3c(N)nc(F)nc32)[C@H](O)[C@@H]1O    2
CNc1nc(I)nc2c1ncn2[C@@H]1O[C@H](CSC)[C@@H](O)[C@H]1O    1

Shifting focus to the compound that follows.
Query: Given CSC[C@H]1O[C@@H](n2cnc3c(N)nc(F)nc32)[C@H](OC(C)=O)[C@@H]1OC(C)=O , state its recorded selectivity ratio.
Reply: 0.8
